Tested on: HT-29
experiment: Antiproliferative activity against human HT-29 cells at 10 uM after 72 hrs by MTS assay
Format: functional
test.context: HT-29, 72 h
inhibition at 10 µM values for the molecules below.
Give the value in % but do not write % after it.

{"columns": ["smi", "units.symbol", "inhibition at 10 µM"],
 "data": [
  ["COc1ccc(-c2nnc3[nH]c(=O)c4ccccc4n23)cc1OC", "%", 0],
  ["COc1ccc(-c2nnc3[nH]c(=O)c4ccccc4n23)cc1O", "%", 10],
  ["COc1cc(-c2nnc3[nH]c(=O)c4ccccc4n23)cc(OC)c1OC", "%", 2],
  ["Cn1c(=O)c2ccccc2n2c(-c3ccc(O)c(O)c3)nnc12", "%", 0],
  ["COc1ccc(-c2nnc3n(C)c(=O)c4ccccc4n23)cc1", "%", 2]
]}

// below: inhibition at 10 µM requested for another molecule
inhibition at 10 µM for `COc1ccc(-c2nnc3n(C)c(=O)c4ccccc4n23)cc1OC` ?
1
